- SUBJECT OF TEST: T1, human ROR1 (full-length, on the cell surface) (human, UniProt Q01973 30-937)
- T1 construct: whole, on cells; the tumour cell lines carry their own ROR1; also called Ba/F3-ROR1 cells; Jeko-1
- PROCEDURE DETAILS: flow cytometry, Ba/F3-ROR1 cells
EXPERIMENTAL READOUT: EC50 (nM)
Field format: number, assumed nM, no unit text.

# input Tell us which EC50 value is on record for 3D8-HuC94 (antibody, human IgG1, kappa, V domains shown, humanized, human IgG1 / kappa) VH: EVQLVESGGGLVQPGGSLRLSCAASGFTFSSYAMSWVRQAPEKRLEWVSSISNGGSTYYPDSVKGRFTISRDNSKNTLYLQMNSLRAEDTAVYYCARVNYYGYGDYAMDYWGQGTLVTVSS VL: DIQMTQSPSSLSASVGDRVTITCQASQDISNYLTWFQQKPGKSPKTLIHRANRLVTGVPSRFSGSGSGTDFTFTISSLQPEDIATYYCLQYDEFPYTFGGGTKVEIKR
# output 0.22

# input Please indicate EC50 recorded for 3D8-Hu56 (antibody, human IgG1, kappa, V domains shown, humanized, human IgG1 / kappa) VH: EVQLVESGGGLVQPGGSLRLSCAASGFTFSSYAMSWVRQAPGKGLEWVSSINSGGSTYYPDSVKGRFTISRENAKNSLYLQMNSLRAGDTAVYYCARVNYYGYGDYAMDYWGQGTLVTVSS VL: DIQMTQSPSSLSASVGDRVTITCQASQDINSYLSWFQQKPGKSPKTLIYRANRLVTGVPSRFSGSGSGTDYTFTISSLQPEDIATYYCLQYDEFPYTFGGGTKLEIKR
# output 0.33

# input Please give measured EC50 of the following entry: 3D8-HuC84 (antibody, human IgG1, kappa, V domains shown, humanized, human IgG1 / kappa) VH: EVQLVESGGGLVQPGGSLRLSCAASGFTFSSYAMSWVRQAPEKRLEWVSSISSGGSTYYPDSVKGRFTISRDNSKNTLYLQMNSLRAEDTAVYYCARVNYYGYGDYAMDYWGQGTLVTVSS VL: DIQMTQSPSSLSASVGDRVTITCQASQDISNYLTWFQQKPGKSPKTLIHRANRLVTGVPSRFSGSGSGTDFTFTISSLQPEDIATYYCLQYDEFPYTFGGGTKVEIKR
# output 0.19

# input Dear colleague, please send me the reported EC50 for 3D8-Hu45 (antibody, human IgG1, kappa, V domains shown, humanized, human IgG1 / kappa) VH: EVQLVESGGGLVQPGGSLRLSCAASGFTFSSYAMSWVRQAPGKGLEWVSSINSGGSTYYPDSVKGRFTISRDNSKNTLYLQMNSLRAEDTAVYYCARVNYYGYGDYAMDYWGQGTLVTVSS VL: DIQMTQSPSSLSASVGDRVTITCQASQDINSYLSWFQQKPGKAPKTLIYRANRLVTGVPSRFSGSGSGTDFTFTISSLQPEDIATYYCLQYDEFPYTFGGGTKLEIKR when you can.
# output 0.33

Ref: patent US20240018237A1
